Molecular target: T1, recombinant human TIGIT extracellular domain (ECD) (human, UniProt Q495A1 22-138)
T1 construct: also called h-TIGIT ECD; recombinant human TIGIT ECD
T1 sequence: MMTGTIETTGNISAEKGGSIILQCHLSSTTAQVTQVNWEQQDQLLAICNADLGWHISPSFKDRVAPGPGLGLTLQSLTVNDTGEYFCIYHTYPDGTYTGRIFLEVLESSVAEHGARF
Assay: blocking ELISA, competitor PVR
Procedure: The effects of VHH antibody clones on blocking Poliovirus Receptor (PVR, a.k.a. CD155) binding to TIGIT were also determined using blocking ELISA assay.
Entries annotated with measured inhibition of PVR binding to h-TIGIT

3G7 VHH (VHH, VHH in E. coli supernatant) VHH: QVQLVESGGGLVQAGDSLRLSCEASGRTLSTYTMGWFRRAPGKEREFVGLAWPSPSTYVVDSVKGRFTISRDNAKNTIYLQMNSLKPEDTAIYYCAADYKSLTQSWLNAALDYWGQGTQVTVSS: > 90%
3F10 VHH (VHH, VHH in E. coli supernatant) VHH: QVQLVESGGGLVQAGGSLRLSCASSEHTFSNFPMGWFRQAPGKERNVVAAIDSSGRLTYYADSVKGRFTISKDNAKSTVYLQMNSLKSEDTARYYCAARTGGVGYYSRSSFYNYWGQGTLVTVSS: > 90%

stdin: Please report the recorded inhibition of PVR binding to h-TIGIT for 2B10 VHH (VHH, VHH in E. coli supernatant) VHH: QVKLEESGGGLVQTGDSLRLSCAASSRIFRRYAMGWFRQAPGKEREFVAAITWSGASTTYTDSVKGRFTISRDSAENTTYLQMTSLRPEDTAVYYCAADPWGSVIVGTAEYEYWGQGTLVTVSS .
stdout: > 90%

Just for reference, patent US20230060388A1 is where these values come from.
